ASSAY: basal HepG2 mitochondrial membrane potential changes, profiling panel, cell-based, JC-1 fluorescence, 24 h, 100 nL compound (AID 1167); also: test concentration not given here
RECORDED_CONDITIONS: higher = more signal
PARAMETER: z-score
API doc: respond with a numeric literal and nothing else, no unit.

molecule=COc1ccc([Si](C)(C)[C@H]2[C@H](CCO)O[C@@]3(C(=O)N(Cc4cccc(NC(=O)[C@H](C)O)c4)c4ccccc43)[C@@H]2C)cc1 reported_measurement=-2.89
molecule=CCCC[C@@H]1C[C@H]1[C@@H](NS(=O)(=O)c1cccc2cccnc12)c1ccc(-c2ccccc2)cc1 reported_measurement=-1.13
molecule=COCC(=C=CC[C@@H](O)c1ccccc1OCCO)CCO reported_measurement=0.429
molecule=CC(=O)OC[C@H]1O[C@H](C#CCCCc2ccccc2)C=C[C@@H]1OC(C)=O reported_measurement=-1.12
molecule=C=C(/C(=C/C[C@@H](OC(=O)c1ccncc1)c1ccc(OCCO)cc1)c1cnc2ccccc2c1)C(C)C reported_measurement=2.2

Fill blank: measured z-score of the molecule CCCCCN1CC=CC23O[C@@H]4C=CCOC(=O)[C@@H]4[C@H]2C(=O)N(CCCCCCO)[C@@H]3C1=O (stereo partly drawn) is ____.
-0.429

`CC(C)(C)OC(=O)CC[C@]1(C(N)=O)COC(c2ccc(OCCCO)cc2)=N1` , same question.
-0.143

# iterate: `COc1ccc(O[C@H]2C=C[C@@H](c3ccccc3)O[C@@H]2COC(=O)N2CCCCC2)cc1`
1.23

====

ASSAY: E. coli acrAB mutant growth effects, primary screen, E. coli filamentation inducers, strain DRC39, OD650, 24 h (AID 1178);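 also: growth measured as culture turbidity by optical density at 650 nm; test concentration not given here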
RECORDED_CONDITIONS: higher = more signal, called active from +8 up or from −8 down
# reported z-score; entries follow
API note: the answer field is a bare number with no unit suffix.

Look over these answered cases.
compound=CC[C@@H](c1ccccc1)n1c(=O)n2n(c1=O)[C@H]1[C@H](O)[C@@H]3O[C@@H]3C(=NOCC=C(C)CCC=C(C)C)[C@H]1CC2 reported_measurement=-0.271
compound=O=C1[C@H]2[C@H]3[C@H](O)[C@H](O)CC(=NO[C@@H]4O[C@H](CO)[C@@H](O)[C@H](O)[C@H]4O)[C@H]3CC[C@H]2C(=O)N1Cc1ccc2c(c1)OCO2 reported_measurement=0.76
compound=CN(C)CCCNC(=O)[C@@H]1c2ccccc2C(=O)N(Cc2cc(F)cc(C(F)(F)F)c2)[C@H]1c1ccc(CO)cc1 reported_measurement=-0.0392
compound=CCOC(=O)NN=C1C[C@@H](O)[C@@H](O)[C@@H]2[C@@H]3C(=O)N(C(C)(C)C)C(=O)[C@@H]3CC[C@@H]12 reported_measurement=-0.654
compound="COC(=O)[C@H](C)NC(=O)CCC1CC(OC(=O)NCc2ccc3c(c2)OCO3)CC2(CCCC(COC(=O)NCCOc3ccccc3)O2)O1 (some centres not stated)" reported_measurement=-0.388
compound=NCCCCCNC(=O)[C@@H]1C[C@@H]2C(=O)N3CCC[C@H]3C(=O)N2[C@@H]1c1cccc(OCCO)c1 reported_measurement=0.0544

For the next question, use this compound.
I have this compound here, O=C1CCCC=C1C(O)CCOCc1ccccc1 (configuration not stated) , and I need its recorded z-score.
-0.88
